Tested on: KB cell
assay.protocol: Cytotoxicity against KB cell line
Format: cell-based
recorded.conditions: Homo sapiens, mean ± spread, unit inferred, read-out: IC50 KB cell (Table 6)
Exercise: for every item that follows, state its recorded pIC50.
Give bare numbers, as −log10 of the molar value.

Please review the following examples before continuing.
* O=C1/C(=C/c2ccc(Br)cc2)CN(Cc2cn(CCCNc3ccnc4cc(Cl)ccc34)nn2)C/C1=C\c1ccc(Br)cc1 | 5.82
* O=C1/C(=C/c2ccc(F)cc2)CN(Cc2cn(CCCNc3ccnc4cc(Cl)ccc34)nn2)C/C1=C\c1ccc(F)cc1 | 5.59
* O=C1/C(=C/c2ccc(F)cc2)CN(Cc2cn(CCNc3ccnc4cc(Cl)ccc34)nn2)C/C1=C\c1ccc(F)cc1 | 5.59

What measured pIC50 goes with COc1ccc(/C=C2\CN(Cc3cn(CCCNc4ccnc5cc(Cl)ccc45)nn3)C/C(=C\c3ccc(OC)cc3)C2=O)cc1 ?
5.33
